Measured MIC values are reported for all entries that follow.
Test system: Pseudomonas aeruginosa
PROCEDURE SUMMARY: Antibacterial activity against clinical isolate polymyxin resistant Pseudomonas aeruginosa FADDI-PA070 after 18 hrs by 2 fold serial dilution method
Type: functional
CONDITION LABEL: FADDI-PA070, 18 h
Bridge positions count the residues as written; N and C are the ends. Square brackets hold non-standard residues; d marks the D form. Peptide text beside a SMILES is read from it. * marks the point of attachment. Octanoyl = CCCCCCCC(=O)*; Dab = NCC[C@H](N)C(=O)O

CCCCCCCC(=O)N[C@@H](CCN)C(=O)N[C@H](C(=O)N[C@@H](CCN)C(=O)N[C@H]1CCNC(=O)[C@H]([C@@H](C)O)NC(=O)[C@H](CCNC(=O)[C@@H](N)CCCNC(=N)N)NC(=O)[C@H](CCN)NC(=O)[C@H](CC(C)C)NC(=O)[C@@H](Cc2ccccc2)NC(=O)[C@H](CCN)NC1=O)[C@@H](C)O (Octanoyl-[Dab]T[Dab][Dab][Dab][dF]L[Dab][Dab](Arg)T; lactam 4-C) | > 32 µg/mL

Please examine the following record next.
Entry CCCCCCCC(=O)N[C@@H](CCN)C(=O)N[C@H](C(=O)NCC(=O)N[C@H]1CCNC(=O)[C@H]([C@@H](C)O)NC(=O)[C@H](CCN)NC(=O)[C@H](CCN)NC(=O)[C@H](CC(C)C)NC(=O)[C@@H](Cc2ccccc2)NC(=O)[C@H](CCN)NC1=O)[C@@H](C)O (Octanoyl-[Dab]TG[Dab][Dab][dF]L[Dab][Dab]T; lactam 4-C) — recorded MIC = > 32 µg/mL

----------
Test system: Klebsiella pneumoniae
PROCEDURE SUMMARY: Antibacterial activity against clinical isolate carbapenem and polymyxin resistant Klebsiella pneumoniae Koprana 100650661:1 after 18 hrs by 2 fold serial dilution method
Type: functional
CONDITION LABEL: Koprana 100650661:1, 18 h
Bridge positions count the residues as written; N and C are the ends. Square brackets hold non-standard residues; d marks the D form. Peptide text beside a SMILES is read from it. * marks the point of attachment. hSer = N[C@@H](CCO)C(=O)O; Octanoyl = CCCCCCCC(=O)*; Dab = NCC[C@H](N)C(=O)O
MEASUREMENT NAME: MIC

Please review the entries below; each comes with its answer.
CCCCCCCC(=O)N[C@@H](CCN)C(=O)N[C@H](C(=O)N[C@@H](CCN)C(=O)N[C@H]1CCNC(=O)[C@H]([C@@H](C)O)NC(=O)[C@H](CCNC(=O)[C@@H](N)CCCNC(=N)N)NC(=O)[C@H](CCN)NC(=O)[C@H](CC(C)C)NC(=O)[C@@H](Cc2ccccc2)NC(=O)[C@H](CCN)NC1=O)[C@@H](C)O (Octanoyl-[Dab]T[Dab][Dab][Dab][dF]L[Dab][Dab](Arg)T; lactam 4-C) | > 32 µg/mL
CCCCCCCC(=O)N[C@@H](CCN)C(=O)N[C@H](C(=O)N[C@@H](CCN)C(=O)N[C@H]1CCNC(=O)[C@H]([C@@H](C)O)NC(=O)[C@H](CCN)NC(=O)[C@H](CCNC(=O)[C@@H](N)CCC(=O)O)NC(=O)[C@H](CC(C)C)NC(=O)[C@@H](Cc2ccccc2)NC(=O)[C@H](CCN)NC1=O)[C@@H](C)O (Octanoyl-[Dab]T[Dab][Dab][Dab][dF]L[Dab](Glu)[Dab]T; lactam 4-C) | > 32 µg/mL

Entry CCCCCCCC(=O)N[C@@H](CCN)C(=O)N[C@H](C(=O)N[C@@H](CCN)C(=O)N[C@H]1CCNC(=O)[C@H]([C@@H](C)O)NC(=O)[C@H](CCN)NC(=O)[C@H](CCO)NC(=O)[C@H](CC(C)C)NC(=O)[C@@H](Cc2ccccc2)NC(=O)[C@H](CCN)NC1=O)[C@@H](C)O (Octanoyl-[Dab]T[Dab][Dab][Dab][dF]L[hSer][Dab]T; lactam 4-C) — recorded MIC = > 32 µg/mL

src = ChEMBL document CHEMBL3774373
